The measurements presented in this section are drawn from patent US6972296B2.

system-name: α4β1 integrin (Homo sapiens, UniProt P05556+P13612)
Construct: endogenous in cells; host or cells: Ramos cells
Sequence (P13612 34-1032): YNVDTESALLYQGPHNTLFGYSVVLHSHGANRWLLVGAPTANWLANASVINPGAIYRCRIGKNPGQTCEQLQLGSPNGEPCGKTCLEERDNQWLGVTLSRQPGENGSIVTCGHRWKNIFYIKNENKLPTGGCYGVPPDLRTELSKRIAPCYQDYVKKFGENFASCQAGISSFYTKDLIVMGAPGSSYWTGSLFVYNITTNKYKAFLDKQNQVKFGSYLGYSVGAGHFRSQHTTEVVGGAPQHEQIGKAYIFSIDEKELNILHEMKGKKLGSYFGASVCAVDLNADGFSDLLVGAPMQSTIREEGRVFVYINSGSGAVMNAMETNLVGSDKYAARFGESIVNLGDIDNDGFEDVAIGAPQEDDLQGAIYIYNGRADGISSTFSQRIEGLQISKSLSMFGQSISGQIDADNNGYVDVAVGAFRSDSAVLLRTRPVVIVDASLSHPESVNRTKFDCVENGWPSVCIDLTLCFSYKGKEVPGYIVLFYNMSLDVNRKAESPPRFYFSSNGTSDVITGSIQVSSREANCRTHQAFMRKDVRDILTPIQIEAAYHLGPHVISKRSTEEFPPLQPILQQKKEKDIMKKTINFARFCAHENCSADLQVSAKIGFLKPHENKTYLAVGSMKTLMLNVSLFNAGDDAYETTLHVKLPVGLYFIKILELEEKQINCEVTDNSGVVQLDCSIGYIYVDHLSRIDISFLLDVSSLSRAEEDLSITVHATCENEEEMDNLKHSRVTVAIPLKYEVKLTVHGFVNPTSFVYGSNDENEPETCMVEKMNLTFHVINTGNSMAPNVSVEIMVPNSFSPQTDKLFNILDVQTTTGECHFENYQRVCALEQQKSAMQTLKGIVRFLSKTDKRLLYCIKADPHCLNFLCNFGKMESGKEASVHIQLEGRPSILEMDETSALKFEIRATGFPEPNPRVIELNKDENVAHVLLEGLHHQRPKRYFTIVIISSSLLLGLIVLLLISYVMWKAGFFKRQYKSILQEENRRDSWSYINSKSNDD
Sequence (P05556 21-798): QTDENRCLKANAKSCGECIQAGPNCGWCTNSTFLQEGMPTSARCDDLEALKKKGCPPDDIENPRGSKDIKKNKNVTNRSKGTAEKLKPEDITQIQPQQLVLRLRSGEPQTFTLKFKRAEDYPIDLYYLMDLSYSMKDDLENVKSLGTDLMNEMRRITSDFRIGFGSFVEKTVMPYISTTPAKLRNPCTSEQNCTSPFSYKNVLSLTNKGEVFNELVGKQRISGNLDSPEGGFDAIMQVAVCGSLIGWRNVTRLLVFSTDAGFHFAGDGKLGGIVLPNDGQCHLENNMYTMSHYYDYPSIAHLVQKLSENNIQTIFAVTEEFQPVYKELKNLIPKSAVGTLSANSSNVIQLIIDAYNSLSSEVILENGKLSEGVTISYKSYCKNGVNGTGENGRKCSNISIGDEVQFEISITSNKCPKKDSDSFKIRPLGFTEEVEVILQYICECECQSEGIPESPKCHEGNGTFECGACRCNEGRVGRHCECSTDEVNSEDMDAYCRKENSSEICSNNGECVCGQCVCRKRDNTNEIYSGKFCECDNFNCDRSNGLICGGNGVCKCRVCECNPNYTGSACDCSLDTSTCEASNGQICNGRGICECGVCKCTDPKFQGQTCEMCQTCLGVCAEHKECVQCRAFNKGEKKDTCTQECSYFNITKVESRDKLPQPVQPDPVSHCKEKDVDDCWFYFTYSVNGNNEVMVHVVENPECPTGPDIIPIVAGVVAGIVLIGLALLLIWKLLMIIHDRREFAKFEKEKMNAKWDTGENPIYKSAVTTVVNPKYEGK
test: Adhesion of calcein-labeled Ramos cells to CS1 (fibronectin) peptide conjugated ovalbumin
Format: cell-based
condition-set: Table 5; Ramos cell adhesion to CS1 conjugated ovalbumin; dose required to give 50% inhibition
pIC50: −log10 of the molar value.
# pIC50 annotations
measured-endpoint: pIC50

{"smiles-notation": "CCc1cn(Cc2ccccc2Cl)c(=O)c(NC(=O)N[C@@H](CC(=O)O)c2ccc(C)cc2)c1O", "measured-endpoint": "pIC50", "measurement": 8.00}
{"smiles-notation": "Cc1ccc([C@H](CC(=O)O)NC(=O)Nc2c(O)ccn(Cc3ccc(C(C)(C)C)cc3)c2=O)cc1", "measured-endpoint": "pIC50", "measurement": 7.52}
{"smiles-notation": "COc1cccc(OC)c1Cn1ccc(O)c(NC(=O)N[C@@H](CC(=O)O)c2ccc(C)cc2)c1=O", "measured-endpoint": "pIC50", "measurement": 8.00}

* * *

# IC50 annotations
system-name: α4β1 integrin (Homo sapiens, UniProt P05556+P13612)
Construct: endogenous in cells; host or cells: Ramos cells
test: Adhesion of calcein-labeled Ramos cells to CS1 (fibronectin) peptide conjugated ovalbumin
Assay type: cell-based
condition-set: Table 4; Ramos cell adhesion to CS1 conjugated ovalbumin, 30 minutes at 37° C.
measured-endpoint: IC50 (nM)

{"compound": "O=C(O)C[C@H](NC(=O)Nc1cccn(Cc2ccccc2Cl)c1=O)c1ccc2c(c1)CCC2", "sign-qualifier": "=", "measurement": 300}
{"compound": "Cc1ccc([C@H](CC(=O)O)NC(=O)Nc2cccn(Cc3ccccc3Cl)c2=O)cc1", "sign-qualifier": "=", "measurement": 100}
{"compound": "O=C(O)C[C@H](NC(=O)Nc1cccn(Cc2cccs2)c1=O)c1cccc(C(F)(F)F)c1", "sign-qualifier": "=", "measurement": 2500}
{"compound": "O=C(O)C[C@H](NC(=O)Nc1cccn(Cc2cccs2)c1=O)c1ccc(F)cc1", "sign-qualifier": "=", "measurement": 1600}
{"compound": "COc1ccc([C@H](CC(=O)O)NC(=O)Nc2cccn(Cc3ccccc3Cl)c2=O)cc1C", "sign-qualifier": "=", "measurement": 40}
{"compound": "Cc1ccc([C@H](CC(=O)O)NC(=O)Nc2cccn(Cc3c(F)cccc3Cl)c2=O)cc1", "sign-qualifier": "=", "measurement": 100}
{"compound": "Cc1ccc([C@H](CC(=O)O)NC(=O)Nc2cccn(Cc3ccccc3C)c2=O)cc1", "sign-qualifier": "=", "measurement": 100}
{"compound": "O=C(O)C[C@H](NC(=O)Nc1cccn(Cc2cccs2)c1=O)c1ccccc1", "sign-qualifier": "=", "measurement": 1000}
{"compound": "COc1cc([C@H](CC(=O)O)NC(=O)Nc2cccn(Cc3ccccc3Cl)c2=O)cc(OC)c1OC", "sign-qualifier": "=", "measurement": 40}
{"compound": "O=C(O)CC(NC(=O)Nc1c(O)ccn(Cc2ccccc2Cl)c1=O)c1cccc(Cl)c1 (stereo not drawn)", "sign-qualifier": "=", "measurement": 30}
{"compound": "CC(=O)Nc1ccc(Br)c(Cn2cccc(NC(=O)N[C@@H](CC(=O)O)c3ccc(C)cc3)c2=O)c1", "sign-qualifier": "=", "measurement": 200}
{"compound": "O=C(O)C[C@H](NC(=O)Nc1cccn(Cc2cc(Cl)cc(Cl)c2)c1=O)c1ccc2c(c1)OCO2", "sign-qualifier": "=", "measurement": 5000}
{"compound": "Cc1ccc([C@H](CC(=O)O)NC(=O)Nc2cccn(CC(=O)Nc3ccccc3O)c2=O)cc1", "sign-qualifier": ">", "measurement": 10000}
{"compound": "O=C(O)C[C@H](NC(=O)Nc1cccn(Cc2ccc(F)cc2)c1=O)c1ccc2c(c1)OCO2", "sign-qualifier": "=", "measurement": 2000}
{"compound": "O=C(O)C[C@H](NC(=O)Nc1cccn(CCc2cccs2)c1=O)c1ccc2c(c1)OCO2", "sign-qualifier": "=", "measurement": 15000}
{"compound": "O=C(O)C[C@H](NC(=O)Nc1cccn(Cc2ccccc2)c1=O)c1ccc2c(c1)OCO2", "sign-qualifier": "=", "measurement": 500}
{"compound": "O=C(O)C[C@H](NC(=O)Nc1cccn(Cc2ccccc2Cl)c1=O)c1ccccc1", "sign-qualifier": "=", "measurement": 100}
{"compound": "Cc1ccc([C@H](CC(=O)O)NC(=O)Nc2cccn(Cc3ccccc3C(F)(F)F)c2=O)cc1", "sign-qualifier": "=", "measurement": 1000}
{"compound": "Cc1ccc([C@H](CC(=O)O)NC(=O)Nc2cn(Cc3ccccc3Cl)ccc2=O)cc1", "sign-qualifier": "=", "measurement": 100}
{"compound": "COc1cccc([C@H](CC(=O)O)NC(=O)Nc2cccn(Cc3cccs3)c2=O)c1", "sign-qualifier": "=", "measurement": 1400}
{"compound": "COc1ccc([C@H](CC(=O)O)NC(=O)Nc2cccn(Cc3cccs3)c2=O)cc1", "sign-qualifier": "=", "measurement": 800}
